# Tested on: A549 NSCLC
# experiment: NCI tumour cell line growth inhibition, 48 h
reported-endpoint: TGI (µM)
Number only, in µM; omit the unit.

**Q:** Fill in the blank: the reported TGI of `C=C(C)[C@@H]1CC[C@]2(C(=O)NCCNCCNCCN)CC[C@]3(C)[C@H](CC[C@@H]4[C@@]5(C)CC[C@H](O)C(C)(C)[C@@H]5CC[C@]43C)[C@@H]12` is ____.
**A:** 21.4

**Q:** Now consider `CN(C)CCNC(=O)c1ccc(C(=O)NCCN(C)C)c2nc3ccccc3cc12` .
**A:** 13

**Q:** Now consider `C=CCNCCCN1C(=O)c2ccc3c4c(ccc(c24)C1=O)C(=O)N(CCCNCC=C)C3=O` .
**A:** 0.605

**Q:** Now consider `Cc1ccc2c(c1C)-c1c(ccc(C)c1C)C(=O)C2=O` .
**A:** 10.3

**Q:** Now consider `Cc1nc(Nc2ccc(F)cc2)c2sc(=S)n(-c3ccc(F)cc3)c2n1` .
**A:** 29.5

* * *

# Test system: SK-MEL-2 melanoma
# experiment: NCI tumour cell line growth inhibition, 48 h
reported-endpoint: TGI

**Q:** Fill in the blank: the reported TGI of CCc1cccc2c3c(sc12)C(c1ccc(Cl)cc1)C(C#N)=C(N)O3 (stereo unspecified) is ____.
**A:** 19.2 µM

**Q:** Now consider COC(=O)C12OC(C)(C(CC(=O)OC(C)(C)C)C1=O)C1C(=O)N(c3ccccc3)C(=O)C12 (stereo unspecified) .
**A:** > 100 µM

**Q:** Now consider `C=CC(C)(C)C(=C)C(=O)N(C)c1ccccc1I` .
**A:** > 100 µM

**Q:** Now consider `Cc1cc(C)nc(NC(=S)Nc2ccccc2Cl)c1` .
**A:** > 100 µM

**Q:** Now consider `O=C1c2cc3c(cc2CC12Cc1cc4c(cc1C2=O)CCC4)CCC3` .
**A:** > 100 µM

**Q:** Now consider `O=c1c(Sc2c(O)c3ccccc3c3ccccc3c2=O)c(O)c2ccccc2c2ccccc12` .
**A:** 68.5 µM

**Q:** Now consider `Cc1ccccc1NC(=O)C(=O)CC(=O)c1sc(Nc2ccccc2[N+](=O)[O-])nc1C` .
**A:** > 100 µM

**Q:** Now consider `COc1cc(NCc2ccc3nc(-c4ccccc4)c(N)nc3c2)cc(OC)c1OC` .
**A:** > 100 µM

**Q:** Now consider `C/C([O-])=C1\Cc2ccccc2C1=O.C/C([O-])=C1\Cc2ccccc2C1=O.CC[O-].CC[O-].[Ti+4]` .
**A:** 33.6 µM

**Q:** Now consider `CC(=O)NCCSC(=O)c1ccccc1` .
**A:** 0.827 µM

**Q:** Now consider C=C(C(=O)O)C1CCC(CC/C=C(\C)CC/C=C(\C)CCC=C(C)C)CO1 (stereo unspecified) .
**A:** 60.4 µM

**Q:** Now consider `C/C(=N\Nc1ccccc1Br)c1cccc(/C(C)=N/Nc2ccccc2Br)n1` .
**A:** > 100 µM

**Q:** Now consider `NC1=NNC2(C(=O)N1)c1ccccc1-c1ccccc12` .
**A:** > 10 µM

**Q:** Now consider `N#Cc1c(-c2ccc(Cl)cc2)c(C#N)c(=O)n(NS(=O)(=O)c2ccccc2)c1S` .
**A:** > 100 µM

**Q:** Now consider `N#CCC(=O)c1cc(OCc2cc(OCc3ccc(Br)cc3)cc(OCc3ccc(Br)cc3)c2)cc(OCc2cc(OCc3ccc(Br)cc3)cc(OCc3ccc(Br)cc3)c2)c1` .
**A:** > 100 µM

**Q:** Now consider O=C(O)C12C3C4C1C1C2C3C1(Br)C41OCCO1 (stereo unspecified) .
**A:** > 100 µM

**Q:** Now consider C=CCOC1=C(OCC=C)C(C2COC(C)(C)O2)OC1=O (stereo unspecified) .
**A:** > 100 µM

**Q:** Now consider CCN(CC)CCC1CCCCN1CC(=O)N1c2ccccc2NC(=O)c2ccccc21 (stereo unspecified) .
**A:** > 100 µM

**Q:** Now consider NC1CC(N)c2c(Br)sc(Br)c21 (stereo unspecified) .
**A:** > 100 µM

**Q:** Now consider CC1CC2C(=O)N(c3ccccc3)C(=O)C2c2c1c1ccccc1n2Cc1ccccc1 (stereo unspecified) .
**A:** > 100 µM

**Q:** Now consider `O=C1C=C[C@@]23C[C@@H](Nc4c(O)c5c6c(c42)=NCCC=6C=N5)SC3=C1` .
**A:** 4.03 µM
